# TARGET: Interferon alpha/beta receptor 1 (Homo sapiens) (UniProt P17181)
# Sequence (whole entry): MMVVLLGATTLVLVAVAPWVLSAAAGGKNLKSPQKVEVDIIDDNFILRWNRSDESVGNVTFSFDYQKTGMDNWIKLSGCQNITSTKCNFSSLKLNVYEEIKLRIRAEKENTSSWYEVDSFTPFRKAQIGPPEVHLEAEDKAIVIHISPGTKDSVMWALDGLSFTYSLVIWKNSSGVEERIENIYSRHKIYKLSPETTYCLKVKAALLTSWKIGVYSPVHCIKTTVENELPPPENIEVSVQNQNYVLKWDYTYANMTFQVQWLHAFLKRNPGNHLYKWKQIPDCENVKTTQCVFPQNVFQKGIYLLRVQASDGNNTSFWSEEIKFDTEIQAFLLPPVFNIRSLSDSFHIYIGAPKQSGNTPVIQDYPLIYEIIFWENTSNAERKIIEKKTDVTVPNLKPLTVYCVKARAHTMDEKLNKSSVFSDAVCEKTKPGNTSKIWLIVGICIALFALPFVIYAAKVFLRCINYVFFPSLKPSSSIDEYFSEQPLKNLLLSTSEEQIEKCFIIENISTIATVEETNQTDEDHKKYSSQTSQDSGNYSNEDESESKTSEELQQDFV
# ASSAY NAME: Inhibition of IFNAR in human Daudi cells assessed as reduction of IFN-induced STAT1 phosphorylation at 200 uM after 15 mins by Western blotting
# Assay type: cell-based
Active and inactive are the calls of the source. The rule behind the calls is not given here.
Your response should consist of one outcome taken from 1.0 = active, 0.0 = inactive

# outcome recorded in this test, key = O=C(c1cc(S(=O)(=O)Nc2cccc(C(F)(F)F)c2)ccc1Cl)N1CCN(Cc2ccc3c(c2)OCO3)CC1
0.0

Which outcome was assigned to O=C(O)CCCCCN1C(=O)/C(=C/c2c(N3CCCc4ccccc43)nc3ccccn3c2=O)SC1=S (mixture of isomers) in this test?
1.0

Which outcome did this test record for the compound O=C(c1ccc(NS(=O)(=O)c2cc(Cl)sc2Cl)cc1)N1CCN(Cc2ccc3c(c2)OCO3)CC1 ?
1.0

Query: recorded result category for CCOc1ccccc1/C=N/NC(=O)CSc1nc2ccccc2c(=O)n1-c1ccccc1C (mixture of isomers) in this test
0.0

// return assay outcome for O=C(c1cccc(S(=O)(=O)Nc2ccc(Cl)cc2)c1)N1NC2=C(CCC/C2=C\c2ccco2)C1c1ccco1 (mixture of isomers)
0.0

Identify the outcome logged in this assay for the compound shown: CCOC(=O)c1nn(-c2ccc(C)cc2)c(C)c1C(=O)C1=NOC2C(=O)N(c3ccccc3C)C(=O)C12 (stereo unspecified)
0.0

Status in this test for Cc1ccc(-n2c(SCC(=O)N/N=C/c3ccccc3OCC(=O)O)nc3ccccc3c2=O)cc1 (mixture of isomers) ?
1.0

Any idea what this test logged for O=C(c1cc(S(=O)(=O)Nc2ccccc2F)c(Cl)cc1Cl)N1CCN(Cc2ccc3c(c2)OCO3)CC1 ?
0.0

Status in this test for COc1ccccc1NS(=O)(=O)c1cc(C(=O)N2CCN(Cc3ccc4c(c3)OCO4)CC2)ccc1Cl ?
0.0

Test call for this compound, please: O=C(c1cc(S(=O)(=O)Nc2cccc(Cl)c2)c(Cl)cc1Cl)N1CCN(Cc2ccc3c(c2)OCO3)CC1
0.0

Hi, do you know how COc1ccccc1NS(=O)(=O)c1ccc2oc(=S)n(CN3CCN(c4ccc(F)cc4)CC3)c2c1 came out in this test?
0.0
